Each entry below carries its recorded half-life.
- Measurement Protocol: Metabolic stability in pooled human hepatocytes assessed as half life
- Type: ADME, cell-based, Hepatocyte
Assay Readout: half-life (min)

Compound: O=C(OC1CCC(CN2CCN(c3cc(=O)c4cc(C(F)(F)F)cc([N+](=O)[O-])c4s3)CC2)CC1)c1ccco1 (stereo not drawn)
Limit Operator: =
Observed Result: 4.5
--
Compound: CC(=O)NC1CCC(CN2CCN(c3cc(=O)c4cc(C(F)(F)F)cc([N+](=O)[O-])c4s3)CC2)CC1 (stereo not drawn)
Limit Operator: >
Observed Result: 93.2
--
Compound: O=C(NC1CCC(CN2CCN(c3cc(=O)c4cc(C(F)(F)F)cc([N+](=O)[O-])c4s3)CC2)CC1)c1ccccc1 (stereo not drawn)
Limit Operator: >
Observed Result: 93.2
--
Compound: O=c1cc(N2CCN(CC3CCC(NP(=O)(Oc4ccccc4)Oc4ccccc4)CC3)CC2)sc2c([N+](=O)[O-])cc(C(F)(F)F)cc12 (stereo not drawn)
Limit Operator: =
Observed Result: 69.2
--
Compound: O=C(OC1CCC(CN2CCN(c3cc(=O)c4cc(C(F)(F)F)cc([N+](=O)[O-])c4s3)CC2)CC1)c1ccncc1 (stereo not drawn)
Limit Operator: =
Observed Result: 4.5
--
Compound: CC(=O)OC1CCC(CN2CCN(c3cc(=O)c4cc(C(F)(F)F)cc([N+](=O)[O-])c4s3)CC2)CC1 (stereo not drawn)
Limit Operator: <
Observed Result: 9
--
Compound: O=C(OC1CCC(CN2CCN(c3cc(=O)c4cc(C(F)(F)F)cc([N+](=O)[O-])c4s3)CC2)CC1)c1ccc(C(F)(F)F)cc1 (stereo not drawn)
Limit Operator: =
Observed Result: 7
--
Compound: O=C(OC1CCC(CN2CCN(c3cc(=O)c4cc(C(F)(F)F)cc([N+](=O)[O-])c4s3)CC2)CC1)C1CCCCC1 (stereo not drawn)
Limit Operator: =
Observed Result: 5.8

---

- Measurement Protocol: Metabolic Stability in pooled human hepatocytes assessed as parent compound remaining after 30 mins
- Type: ADME, cell-based, Hepatocyte
- Settings: read-out: Stabilty

Compound: NC1CCC(CN2CCN(c3cc(=O)c4cc(C(F)(F)F)cc([N+](=O)[O-])c4s3)CC2)CC1 (stereo unspecified)
Unit Descriptor: %
remaining at 0.5 h: 83.6
//
Compound: CC(=O)OC1CCC(CN2CCN(c3cc(=O)c4cc(C(F)(F)F)cc([N+](=O)[O-])c4s3)CC2)CC1 (stereo unspecified)
Unit Descriptor: %
remaining at 0.5 h: 0
//
Compound: COc1ccc(C(=O)OC2CCC(CN3CCN(c4cc(=O)c5cc(C(F)(F)F)cc([N+](=O)[O-])c5s4)CC3)CC2)cc1 (stereo unspecified)
Unit Descriptor: %
remaining at 0.5 h: 12.2
//
Compound: O=C(OC1CCC(CN2CCN(c3cc(=O)c4cc(C(F)(F)F)cc([N+](=O)[O-])c4s3)CC2)CC1)c1ccccc1 (stereo unspecified)
Unit Descriptor: %
remaining at 0.5 h: 56.4
//
Compound: O=c1cc(N2CCN(CC3CCCCC3)CC2)sc2c(NO)cc(C(F)(F)F)cc12
Unit Descriptor: %
remaining at 0.5 h: 19.1
//
Compound: CC(=O)NC1CCC(CN2CCN(c3cc(=O)c4cc(C(F)(F)F)cc([N+](=O)[O-])c4s3)CC2)CC1 (stereo unspecified)
Unit Descriptor: %
remaining at 0.5 h: 86.8
//
Compound: O=C(OC1CCC(CN2CCN(c3cc(=O)c4cc(C(F)(F)F)cc([N+](=O)[O-])c4s3)CC2)CC1)c1ccc(F)cc1 (stereo unspecified)
Unit Descriptor: %
remaining at 0.5 h: 3
//
Compound: O=c1cc(N2CCN(CC3CCC(NP(=O)(Oc4ccccc4)Oc4ccccc4)CC3)CC2)sc2c([N+](=O)[O-])cc(C(F)(F)F)cc12 (stereo unspecified)
Unit Descriptor: %
remaining at 0.5 h: 74.1
//
Compound: O=c1cc(N2CCN(CC3CCC(O)CC3)CC2)sc2c([N+](=O)[O-])cc(C(F)(F)F)cc12 (stereo unspecified)
Unit Descriptor: %
remaining at 0.5 h: 72.7
//
Compound: O=C(OC1CCC(CN2CCN(c3cc(=O)c4cc(C(F)(F)F)cc([N+](=O)[O-])c4s3)CC2)CC1)c1ccco1 (stereo unspecified)
Unit Descriptor: %
remaining at 0.5 h: 1
//
Compound: O=C(NC1CCC(CN2CCN(c3cc(=O)c4cc(C(F)(F)F)cc([N+](=O)[O-])c4s3)CC2)CC1)c1ccccc1 (stereo unspecified)
Unit Descriptor: %
remaining at 0.5 h: 92.9
//
Compound: CS(=O)(=O)NC1CCC(CN2CCN(c3cc(=O)c4cc(C(F)(F)F)cc([N+](=O)[O-])c4s3)CC2)CC1 (stereo unspecified)
Unit Descriptor: %
remaining at 0.5 h: 105
//
Compound: Cc1ccc(C(=O)OC2CCC(CN3CCN(c4cc(=O)c5cc(C(F)(F)F)cc([N+](=O)[O-])c5s4)CC3)CC2)cc1 (stereo unspecified)
Unit Descriptor: %
remaining at 0.5 h: 9.7
//
Compound: Nc1cc(C(F)(F)F)cc2c(=O)cc(N3CCN(CC4CCC(O)CC4)CC3)sc12 (stereo unspecified)
Unit Descriptor: %
remaining at 0.5 h: 72.9
//
Compound: O=C(OC1CCC(CN2CCN(c3cc(=O)c4cc(C(F)(F)F)cc([N+](=O)[O-])c4s3)CC2)CC1)c1cccs1 (stereo unspecified)
Unit Descriptor: %
remaining at 0.5 h: 2.2
//
Compound: O=C(OC1CCC(CN2CCN(c3cc(=O)c4cc(C(F)(F)F)cc([N+](=O)[O-])c4s3)CC2)CC1)C1CCCCC1 (stereo unspecified)
Unit Descriptor: %
remaining at 0.5 h: 2.8
//
Compound: O=C(OC1CCC(CN2CCN(c3cc(=O)c4cc(C(F)(F)F)cc([N+](=O)[O-])c4s3)CC2)CC1)c1ccc(C(F)(F)F)cc1 (stereo unspecified)
Unit Descriptor: %
remaining at 0.5 h: 5.2
//
Compound: O=c1cc(N2CCN(CC3CCCCC3)CC2)sc2c([N+](=O)[O-])cc(C(F)(F)F)cc12
Unit Descriptor: %
remaining at 0.5 h: 82.4
//
Compound: O=c1cc(N2CCN(CC3CCC(NS(=O)(=O)c4ccccc4)CC3)CC2)sc2c([N+](=O)[O-])cc(C(F)(F)F)cc12 (stereo unspecified)
Unit Descriptor: %
remaining at 0.5 h: 90.8
//
Compound: Nc1cc(C(F)(F)F)cc2c(=O)cc(N3CCN(CC4CCCCC4)CC3)sc12
Unit Descriptor: %
remaining at 0.5 h: 0.9
//
Compound: O=C(OC1CCC(CN2CCN(c3cc(=O)c4cc(C(F)(F)F)cc([N+](=O)[O-])c4s3)CC2)CC1)c1ccncc1 (stereo unspecified)
Unit Descriptor: %
remaining at 0.5 h: 1

Values compiled from ChEMBL document CHEMBL4825698.
